procedure.details: Bi-directional Caco-2 permeability
Type: in vitro ADME
study.conditions: human; Caco-2, apical to basolateral, 37 C, up to 90 minutes; read-out: AB Papp (cm/sec × 10^6)
Label key: true (1) means Papp A→B at 90 min under 9 ×10⁻⁶ cm/s; false (0) means Papp A→B at 90 min of 9 ×10⁻⁶ cm/s or more.

Some solved cases for reference:
CC(C)OC(=O)N[C@H]1CC[C@H](c2ncc(-c3ccc(NC(=O)NCc4ccccc4)cc3S(=O)(=O)NC(C)(C)C)s2)CC1 [Ex. 66A] | true (1)
CC(C)OC(=O)N[C@H]1CC[C@H](c2nc(F)c(-c3ccc(NC(=O)NCc4ccccc4)cc3S(=O)(=O)NC(C)(C)C)s2)CC1 | true (1)
CC(C)OC(=O)N[C@H]1CC[C@H](c2ncc(-c3ccc(NC(=O)NCc4ncccc4F)cc3S(=O)(=O)NC(C)(C)C)s2)CC1 | false (0)
CC(C)OC(=O)Nc1ccc(-c2cnc([C@H]3CC[C@H](NC(=O)OC(C)(C)C)CC3)s2)c(S(=O)(=O)NC(C)(C)C)c1 | true (1)

Ask: Given CC(C)OC(=O)NC1CCC(c2ncc(-c3ccc(NC(=O)OC4COC4)cc3S(=O)(=O)NC(C)(C)C)s2)CC1 (stereo not drawn) , is recorded Papp A→B at 90 min strictly lower than 9 ×10⁻⁶ cm/s?
Result: false (0)

Ask: Given CC(C)(C)NS(=O)(=O)c1cc(NC(=O)NCc2ccccc2)ccc1-c1cnc([C@H]2CC[C@H](NC(=O)OC(C)(C)C)CC2)s1 , is recorded Papp A→B at 90 min strictly lower than 9 ×10⁻⁶ cm/s?
Result: true (1)

Ask: Given CC(C)OC(=O)Nc1ccc(-c2cnc([C@H]3CC[C@H](NC(=O)OC(C)C)CC3)s2)c(S(=O)(=O)NC(C)(C)C)c1 [Ex. 67A] , is recorded Papp A→B at 90 min strictly lower than 9 ×10⁻⁶ cm/s?
Result: false (0)

Ask: Given CC(C)OC(=O)N[C@H]1CC[C@H](c2ncc(-c3ccc(NC(=O)OC[C@H]4CCCN4C)cc3S(=O)(=O)NC(C)(C)C)s2)CC1 , is recorded Papp A→B at 90 min strictly lower than 9 ×10⁻⁶ cm/s?
Result: true (1)

Ask: Given CC(C)OC(=O)Nc1ccc(-c2cnc(C3CCC(NC(=O)OC4COC4)CC3)s2)c(S(=O)(=O)NC(C)(C)C)c1 (stereo not drawn) , is recorded Papp A→B at 90 min strictly lower than 9 ×10⁻⁶ cm/s?
Result: false (0)

Ask: Given CC(C)OC(=O)N[C@H]1CC[C@H](c2ncc(-c3ccc(NC(=O)NCc4ccccc4)cc3S(=O)(=O)NC(C)(C)C)s2)OC1 [Ex. 59B] , is recorded Papp A→B at 90 min strictly lower than 9 ×10⁻⁶ cm/s?
Result: true (1)

Ask: Given CC(C)OC(=O)N[C@@H]1CC[C@@H](c2ncc(-c3ccc(NC(=O)NCc4ccccc4)cc3S(=O)(=O)NC(C)(C)C)s2)NC1 , is recorded Papp A→B at 90 min strictly lower than 9 ×10⁻⁶ cm/s?
Result: true (1)

Ask: Given CC(C)OC(=O)Nc1ccc(-c2cnc([C@H]3CC[C@H](NC(=O)OC(C)C)CO3)s2)c(S(=O)(=O)NC(C)(C)C)c1 [Ex. 60B] , is recorded Papp A→B at 90 min strictly lower than 9 ×10⁻⁶ cm/s?
Result: false (0)

Ask: Given CC(C)OC(=O)N[C@H]1CC[C@H](c2ncc(-c3ccc(NC(=O)N[C@H](C)c4ccccn4)cc3S(=O)(=O)NC(C)(C)C)s2)CC1 , is recorded Papp A→B at 90 min strictly lower than 9 ×10⁻⁶ cm/s?
Result: false (0)

Ask: Given CC(C)OC(=O)Nc1ccc(-c2cnc([C@@H]3CC[C@@H](NC(=O)OC(C)C)CO3)s2)c(S(=O)(=O)NC(C)(C)C)c1 [Ex. 60A] , is recorded Papp A→B at 90 min strictly lower than 9 ×10⁻⁶ cm/s?
Result: false (0)

Ask: Given C[C@H](NC(=O)Nc1ccc(-c2cnc(C3CCC(NC(=O)OC4COC4)CC3)s2)c(S(=O)(=O)NC(C)(C)C)c1)c1ccccc1 (stereo partly drawn) , is recorded Papp A→B at 90 min strictly lower than 9 ×10⁻⁶ cm/s?
Result: false (0)

Ask: Given CC(C)(C)NS(=O)(=O)c1cc(NC(=O)NCc2ccccc2)ccc1-c1cnc([C@H]2CC[C@H](NC(=O)OC3COC3)CC2)s1 , is recorded Papp A→B at 90 min strictly lower than 9 ×10⁻⁶ cm/s?
Result: true (1)

Ask: Given CC(C)OC(=O)N[C@H]1CC[C@H](c2ncc(-c3ccc(NC(=O)NCc4cccc(F)c4)cc3S(=O)(=O)NC(C)(C)C)s2)CC1 , is recorded Papp A→B at 90 min strictly lower than 9 ×10⁻⁶ cm/s?
Result: true (1)

Ask: Given CC(C)OC(=O)N[C@H]1CC[C@H](c2ncc(-c3ccc(NC(=O)NCc4ccccc4F)cc3S(=O)(=O)NC(C)(C)C)s2)CC1 , is recorded Papp A→B at 90 min strictly lower than 9 ×10⁻⁶ cm/s?
Result: true (1)

Ask: Given CC(C)OC(=O)N[C@@H]1CC[C@@H](c2ncc(-c3ccc(NC(=O)NCc4ccccc4)cc3S(=O)(=O)NC(C)(C)C)s2)OC1 [Ex. 59A] , is recorded Papp A→B at 90 min strictly lower than 9 ×10⁻⁶ cm/s?
Result: true (1)

Ask: Given CC(C)(C)NS(=O)(=O)c1cc(NC(=O)NCc2ccccn2)ccc1-c1cnc(C2CCC(NC(=O)OC3COC3)CC2)s1 (stereo not drawn) , is recorded Papp A→B at 90 min strictly lower than 9 ×10⁻⁶ cm/s?
Result: true (1)

Ask: Given CC(C)NC(=O)O[C@H]1CC[C@H](c2ncc(-c3ccc(NC(=O)NCc4ccccc4)cc3S(=O)(=O)NC(C)(C)C)s2)CC1 , is recorded Papp A→B at 90 min strictly lower than 9 ×10⁻⁶ cm/s?
Result: true (1)

Origin of measurements: patent US10336746B1
